Exercise: state measured hERG current change (%, negative = inhibition) at 1uM for each of the molecules provided.
# experimental target: human ether-à-go-go-related gene (hERG) potassium channel (human)
# assay method text: primary screen, population patch clamp on CHO cells stably expressing hERG; higher = less effect of the substance
The whole screen tested about 310,000 compounds, of which about 2,200 (0.71%) showed an effect of 50% or more. Effects have a minus sign here. This excerpt belongs to a sample that is enriched for strong results.
Quick note: give the figure in %, leave out the unit.

For the molecule O=C(NCCCn1ccnc1)/C(=C/c1ccc(F)cc1)NC(=O)c1ccccc1 , give its measured hERG current change (%, negative = inhibition) at 1uM value.
-72.2

Supply recorded hERG current change (%, negative = inhibition) at 1uM for Cc1ccc(/C=C(\NC(=O)c2ccc(C)cc2)C(=O)NCCCn2ccnc2)cc1 here.
-87

Tell me its hERG current change (%, negative = inhibition) at 1uM given O=C(NCCCn1ccnc1)/C(=C\c1ccccc1F)NC(=O)c1ccccc1 as the entry.
-42.5

Quick one: give measured hERG current change (%, negative = inhibition) at 1uM for Cc1ccc(C(=O)N/C(=C\c2ccccc2)C(=O)NCCCn2ccnc2)cc1
-87

Report measured hERG current change (%, negative = inhibition) at 1uM; entry is Cc1ccc(C(=O)N/C(=C\c2ccc(F)cc2)C(=O)NCCCn2ccnc2)cc1
-85.1

====

# experimental target: human ether-à-go-go-related gene (hERG) potassium channel (human, UniProt Q12809)
# Sequence (Q12809 whole entry, looked up): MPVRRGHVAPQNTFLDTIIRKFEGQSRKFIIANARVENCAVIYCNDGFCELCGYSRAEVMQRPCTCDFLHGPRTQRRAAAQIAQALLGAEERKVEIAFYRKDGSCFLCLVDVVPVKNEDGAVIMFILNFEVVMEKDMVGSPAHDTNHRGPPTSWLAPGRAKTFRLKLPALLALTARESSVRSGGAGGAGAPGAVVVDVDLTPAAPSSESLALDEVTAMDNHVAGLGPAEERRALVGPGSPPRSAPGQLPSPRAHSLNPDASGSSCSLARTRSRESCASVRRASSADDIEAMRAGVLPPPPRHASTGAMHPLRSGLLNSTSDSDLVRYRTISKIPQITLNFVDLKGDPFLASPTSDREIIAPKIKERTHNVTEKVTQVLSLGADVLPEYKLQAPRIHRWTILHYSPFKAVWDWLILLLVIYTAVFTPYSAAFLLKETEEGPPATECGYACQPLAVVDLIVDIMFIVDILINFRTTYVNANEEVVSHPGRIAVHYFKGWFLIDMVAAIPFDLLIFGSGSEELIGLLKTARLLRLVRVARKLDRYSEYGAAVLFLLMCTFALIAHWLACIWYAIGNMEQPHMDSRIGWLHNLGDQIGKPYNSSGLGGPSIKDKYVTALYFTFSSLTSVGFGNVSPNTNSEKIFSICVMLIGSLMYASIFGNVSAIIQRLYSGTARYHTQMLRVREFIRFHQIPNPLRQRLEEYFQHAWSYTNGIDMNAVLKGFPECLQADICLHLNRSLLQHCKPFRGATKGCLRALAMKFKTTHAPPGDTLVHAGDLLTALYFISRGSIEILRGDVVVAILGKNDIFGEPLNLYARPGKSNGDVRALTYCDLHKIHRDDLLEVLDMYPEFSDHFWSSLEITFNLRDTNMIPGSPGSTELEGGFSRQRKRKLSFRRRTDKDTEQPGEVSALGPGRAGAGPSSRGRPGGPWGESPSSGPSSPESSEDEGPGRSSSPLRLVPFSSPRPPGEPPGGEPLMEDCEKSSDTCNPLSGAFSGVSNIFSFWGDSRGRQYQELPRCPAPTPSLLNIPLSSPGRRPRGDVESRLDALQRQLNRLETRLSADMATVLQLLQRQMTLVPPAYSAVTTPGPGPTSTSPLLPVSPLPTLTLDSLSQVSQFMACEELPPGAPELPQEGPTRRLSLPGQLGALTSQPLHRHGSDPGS
# assay method text: primary screen, population patch clamp on CHO cells stably expressing hERG; higher = less effect of the substance
Hit rate of the full screen: of about 310,000 compounds, about 2,200 (0.71%) showed an effect of 50% or more. Effects have a minus sign here. The full list was thinned out, with strong results kept by preference.
value kind: hERG current change (%, negative = inhibition) at 1uM
Number first, unit second: that is the form wanted.

Identify measured hERG current change (%, negative = inhibition) at 1uM obtained with human ether-à-go-go-related gene (hERG) potassium channel (human, UniProt Q12809) for CCCOc1ccc(OCCCCNC(C)CC)cc1.O=C(O)C(=O)O (centres unmarked) .
1.92%

Name the recorded hERG current change (%, negative = inhibition) at 1uM of CCCCCn1cc(C(=O)C(=O)N2CCOCC2)c2ccccc21 , assay system human ether-à-go-go-related gene (hERG) potassium channel (human, UniProt Q12809).
7.53%

Provide human ether-à-go-go-related gene (hERG) potassium channel (human, UniProt Q12809) hERG current change (%, negative = inhibition) at 1uM reading for COc1ccccc1OCCNC(=O)/C=C/c1ccc([N+](=O)[O-])cc1 .
-9.26%

Report the value of hERG current change (%, negative = inhibition) at 1uM obtained on human ether-à-go-go-related gene (hERG) potassium channel (human, UniProt Q12809) for COc1ccc(OCCNC(=O)/C=C/c2ccc([N+](=O)[O-])cc2)cc1 .
-59.9%

Param request: hERG current change (%, negative = inhibition) at 1uM | system human ether-à-go-go-related gene (hERG) potassium channel (human, UniProt Q12809) | item O=[N+]([O-])c1ccc(OCCCCCN2CCOCC2)cc1
-24.9%

====

# experimental target: human ether-à-go-go-related gene (hERG) potassium channel (human)
# assay method text: primary screen, population patch clamp on CHO cells stably expressing hERG; higher = less effect of the substance
In all, about 310,000 compounds went through this assay and about 2,200 (0.71%) showed an effect of 50% or more. The effect is printed as a negative number. The list comes from a sample in which strong results are over-represented; it also holds close analogues and randomly drawn compounds.
Field: hERG current change (%, negative = inhibition) at 1uM. Provide a value for each of the compounds that follow.
Number in %, nothing else.

Given the compound Cc1ccc(S(=O)(=O)N(C)C)cc1NC(=O)COC(=O)C1CCN(S(=O)(=O)c2cccs2)CC1 , write its reported hERG current change (%, negative = inhibition) at 1uM.
-58.4

Tell me measured hERG current change (%, negative = inhibition) at 1uM for COc1ccccc1CC(=O)Nc1ccc([N+](=O)[O-])cc1OC please.
8.75

Tell us which hERG current change (%, negative = inhibition) at 1uM value is on record for COc1ccc(OC)c(C2C(C#N)=C(N)Oc3c2c(C)nn3-c2cccc(Cl)c2)c1 (centres unmarked)
7.28

For the compound O=C(c1cc([N+](=O)[O-])ccc1N1CCCCC1)N1CCc2ccccc21 , give its reported hERG current change (%, negative = inhibition) at 1uM.
8.63

Supply hERG current change (%, negative = inhibition) at 1uM value. Item: CCOc1ccc2nc(SCC(=O)N(CC(C)C)c3c(N)n(Cc4ccccc4)c(=O)[nH]c3=O)[nH]c2c1
9.81

Tell me hERG current change (%, negative = inhibition) at 1uM reported for CC1CCCC(N2CCN(C(=O)c3ccc([N+](=O)[O-])cc3)CC2)C1.O=C(O)C(=O)O (centres unmarked)
-67.3

Tell us which hERG current change (%, negative = inhibition) at 1uM value is on record for COc1cc(C(=O)N2CCN(C3CCCCC3)CC2)cc(OC)c1OC.O=C(O)C(=O)O
14.5

Hello, please tell me recorded hERG current change (%, negative = inhibition) at 1uM for this one: CCOC(=O)N/N=C/c1cccnc1
5

// fetch hERG current change (%, negative = inhibition) at 1uM given entry Cc1cccc(NC(=O)CSc2cccc3cccnc23)c1C
13.9

Please give measured hERG current change (%, negative = inhibition) at 1uM of the following entry: COc1cccc(C(=O)N2CCN(C3CCCCC3)CC2)c1.O=C(O)C(=O)O
6.64

Give the value of hERG current change (%, negative = inhibition) at 1uM reported for the following: CC1CCCC(N2CCN(C(=O)c3cccc(F)c3)CC2)C1.O=C(O)C(=O)O (centres unmarked)
8.59

Report measured hERG current change (%, negative = inhibition) at 1uM; entry is Cc1ccc(NC(=O)C(c2ccccc2)N2CCN(CC(=O)N3CCOCC3)CC2)cc1 (centres unmarked)
-8.48

Return value of hERG current change (%, negative = inhibition) at 1uM for input Cc1ccc(S(=O)(=O)N(C)C)cc1NC(=O)COC(=O)C1CCCC1 , no commentary.
-0.454

Complete the entry with hERG current change (%, negative = inhibition) at 1uM for COc1ccccc1NC(=O)/C=C1\SCC(=O)N1C
2.4

Using known records, supply hERG current change (%, negative = inhibition) at 1uM for COc1ccc(CCC(=O)N2CCN(C3CCCCC3)CC2)cc1
-56.7

In one line, give reported hERG current change (%, negative = inhibition) at 1uM of the entry CN1CCC(=NNC(=O)CN(c2cccc(Br)c2)S(C)(=O)=O)CC1 .
1.22

# return recorded hERG current change (%, negative = inhibition) at 1uM for input COc1cc(NC(=O)C(C)Oc2ccccc2)c(OC)cc1NC(=O)c1ccccc1 (centres unmarked)
13.2

Tell me hERG current change (%, negative = inhibition) at 1uM reported for COc1ccc(C(=O)N2CCN(C3CCC(c4ccccc4)CC3)CC2)cc1OC (centres unmarked)
-60.4

Determine from records and report hERG current change (%, negative = inhibition) at 1uM for COc1ccc(C(=O)N2CCN(C3CCCCC3)CC2)cc1OC.O=C(O)C(=O)O
-74.2

Supply measured hERG current change (%, negative = inhibition) at 1uM of CC(Sc1nc2ccccc2n1C)C(=O)Nc1ccc(N2CCOCC2)cc1 (centres unmarked) in your reply.
6.2

====

# experimental target: human ether-à-go-go-related gene (hERG) potassium channel (human, UniProt Q12809)
# assay method text: primary screen, population patch clamp on CHO cells stably expressing hERG; higher = less effect of the substance
# Source text: Briefly, Chinese hamster ovary (CHO) cells stably expressing the hERG channel were dislodged from tissue culture flasks and dispensed into PPC plates. […] Small molecule effects on hERG current density were quantified by […].
The campaign covered roughly 310,000 compounds. About 2,200 (0.71%) showed an effect of 50% or more. The effect is printed as a negative number. For the sample, strong results were picked, then their nearest neighbours and some compounds at random.
Decide using hERG current change (%, negative = inhibition) at 1uM: a value greater than or equal to -40% is T, a smaller one is F.

Please check the record CCOc1ccccc1N1CCN(C(=O)c2cc(-c3cc(OC)ccc3OC)nc3ccccc23)CC1 and state if its hERG current change (%, negative = inhibition) at 1uM is at or above -40%.
T

Is hERG current change (%, negative = inhibition) at 1uM for CC(C(=O)Nc1cccc(S(=O)(=O)N2CCOCC2)c1)N1CCN(C/C=C/c2ccccc2)CC1 (centres unmarked) at or above -40%?
T

Check the entry COc1ccc(Cl)cc1NC(=O)C(C)N1CCN(C/C=C/c2ccccc2)CC1.O=C(O)C(=O)O (centres unmarked) : does hERG current change (%, negative = inhibition) at 1uM equal or exceed -40%?
T

State whether the measured hERG current change (%, negative = inhibition) at 1uM reaches -40%, counting equality as reaching it, for COc1ccccc1NC(=O)C(C)N1CCN(C/C=C/c2ccccc2)CC1 (centres unmarked)
F
